assayComment: chemical genetic growth profiling, strain panel (AID 1159580);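 note: tested at 20 µM; growth read once vehicle control cultures reached saturation at 30 °C; 1 = growth at the plate median or of vehicle wells; lower values mean less growth of the strain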
cond: S. cerevisiae deletion strains, growth OD, locus YNL322C, strain KRE1, hits give low values
Among all 5,500 compounds or so, about 2,000 (36%) were called active. Not shown: some 18% with an inconclusive outcome. Some of the results follow.
Measured normalized growth values are reported for all entries that follow.
The answer should be a number; do not append a unit.

Before answering, review these 5 worked examples.
Incoming: Check the records and state normalized growth for CC1CC2C3CC(F)C4=CC(=O)C=CC4(C)C3(F)C(O)CC2(C)C1C(=O)COC(=O)C(C)(C)C (stereo unspecified)
Outgoing: 0.984

Incoming: Check the records and state normalized growth for NS(=O)(=O)c1cc2c(cc1Cl)NC(C1CC3C=CC1C3)NS2(=O)=O (stereo unspecified)
Outgoing: 0.988

Incoming: Check the records and state normalized growth for CN(C)CC[C@@H](c1ccc(Br)cc1)c1ccccn1
Outgoing: 0.983

Incoming: Check the records and state normalized growth for C=C1C2=CC(=O)O[C@@H](c3ccoc3)[C@]2(C)CCC1[C@@]1(C)C=CC(=O)C(C)(C)[C@@H]1CC(=O)OC (stereo partly specified)
Outgoing: 0.995

Incoming: Check the records and state normalized growth for CCC(=O)c1c(C)c(C)c(C)c(C)c1C
Outgoing: 0.997

Now, please, on to the next compound.
Incoming: Check the records and state normalized growth for C=C1[C@H]2CC[C@@]3(C)[C@H](c4ccoc4)OC(=O)C[C@]13O[C@H]1C[C@H](O)C(C)(C)[C@H](CC(=O)OC)[C@]12C
Outgoing: 1
